Test system: SF-295 CNS
Test: NCI tumour cell line growth inhibition, 48 h
Answer each item with its documented TGI.
One number for each entry, in µM.

Specify the recorded TGI for CCOC(=O)c1cc(=C2\CCN(CC(C)CC)C2=S)/c(=C(/O)CC)[nH]1 (stereo not drawn) , system: SF-295 CNS.
34.4

Specify the recorded TGI for CC(=O)[CH-]C(=O)c1ccccc1.CC(=O)[CH-]C(=O)c1ccccc1.CCCCCCCCCCCCCCCCCC(=O)[O-].CCCCCCCCCCCCCCCCCC(=O)[O-].[Ti+4] , system: SF-295 CNS.
34.3

Specify the recorded TGI for CSC1=Nc2ccccc2N(C)c2c1c(-c1ccccc1)nn2C , system: SF-295 CNS.
33.6

More entries:
Specify the recorded TGI for CCC(C)C1NC(=O)c2nc(oc2-c2ccccc2)-c2csc(n2)-c2csc(n2)-c2nc(oc2C)-c2coc(n2)CNC(=O)C(C(C)CC)NC1=O (stereo not drawn) , system: SF-295 CNS.
0.178
